Measured IC50 values are reported for all entries that follow.
# Tested on: BaF3
# test.summary: Antiproliferative activity against mouse BaF3-LMNA-NTRK1-G595 mutant cells assessed as cell viability measured after 72 hrs
# Format: functional, cell-based
# details: BaF3, 72 h
recorded.metric: IC50 (nM)

{"columns": ["chemical.string", "assay.target", "recorded.metric", "u", "reported"],
 "data": [
  ["O=C(Nc1cnn2ccc(N3CCC[C@@H]3c3cc(F)ccc3F)nc12)N1CC[C@H](O)C1", "BaF3", "IC50", "nM", 2500],
  ["CO[C@H]1CC[C@H](NC(=O)c2cnn3ccc(N(C)Cc4cccc(F)c4)nc23)CC1", "BaF3", "IC50", "nM", 3340],
  ["CN(Cc1cccc(F)c1)c1ccn2ncc(C(=O)N[C@H]3CC[C@H](O)CC3)c2n1", "BaF3", "IC50", "nM", 495]
]}

---

Measured inhibition values are reported for all entries that follow.
# assay.target: High affinity nerve growth factor receptor (Homo sapiens) (UniProt P04629)
# Sequence (P04629 33-796 limits assumed): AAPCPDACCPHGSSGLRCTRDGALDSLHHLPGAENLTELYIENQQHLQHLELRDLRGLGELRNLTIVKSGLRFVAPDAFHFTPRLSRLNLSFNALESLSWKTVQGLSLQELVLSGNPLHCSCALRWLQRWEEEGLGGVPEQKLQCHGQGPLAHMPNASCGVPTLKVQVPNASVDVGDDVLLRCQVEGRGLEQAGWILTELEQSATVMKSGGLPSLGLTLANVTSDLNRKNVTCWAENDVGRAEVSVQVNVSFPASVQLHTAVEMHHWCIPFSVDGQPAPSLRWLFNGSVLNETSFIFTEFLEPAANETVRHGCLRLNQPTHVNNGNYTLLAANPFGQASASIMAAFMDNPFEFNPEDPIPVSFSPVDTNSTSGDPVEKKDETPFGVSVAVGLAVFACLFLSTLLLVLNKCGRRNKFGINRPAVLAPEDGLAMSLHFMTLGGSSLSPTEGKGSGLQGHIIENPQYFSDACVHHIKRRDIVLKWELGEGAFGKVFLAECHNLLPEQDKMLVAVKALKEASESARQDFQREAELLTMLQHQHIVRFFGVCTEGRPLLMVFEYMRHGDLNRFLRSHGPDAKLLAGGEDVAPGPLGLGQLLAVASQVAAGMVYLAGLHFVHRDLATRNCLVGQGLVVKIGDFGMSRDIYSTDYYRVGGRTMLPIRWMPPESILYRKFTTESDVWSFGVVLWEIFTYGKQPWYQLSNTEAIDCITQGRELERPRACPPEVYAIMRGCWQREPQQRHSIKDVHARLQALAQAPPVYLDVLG
# test.summary: Inhibition of wild type […] (unknown origin) at 500 nM incubated for 30 mins by caliper mobility shift assay relative to control

{"columns": ["compound", "inhibition (%)"],
 "data": [
  ["CC(Nc1ccn2ncc(C(=O)NC3CCOCC3)c2n1)c1cccc(F)c1 (centres undefined)", 99],
  ["CO[C@H]1CC[C@H](NC(=O)c2cnc3ccc(NCc4cccc(F)c4)nn23)CC1", 99.3],
  ["O=C(NC1CCOCC1)c1cnn2ccc(NCc3cccc(F)c3)nc12", 108],
  ["CN1CCC(NC(=O)c2cnn3ccc(NCc4cccc(F)c4)nc23)CC1", 99.8],
  ["CN1CCC(NC(=O)c2cnc3ccc(NCc4cccc(F)c4)nn23)CC1", 88.5],
  ["O=C(N[C@H]1CC[C@H](O)CC1)c1cnn2ccc(NCc3cccc(F)c3)nc12", 108],
  ["CO[C@H]1CC[C@H](NC(=O)c2cnn3ccc(N(C)Cc4cccc(F)c4)nc23)CC1", 102],
  ["CC(Nc1ccn2ncc(C(=O)N[C@H]3CC[C@H](O)CC3)c2n1)c1cccc(F)c1 (some centres undefined)", 98.8],
  ["CN(Cc1cccc(F)c1)c1ccn2ncc(C(=O)N[C@H]3CC[C@H](O)CC3)c2n1", 101],
  ["O=C(N[C@H]1CC[C@H](O)CC1)c1cnc2ccc(NCc3cccc(F)c3)nn12", 107],
  ["CO[C@H]1CC[C@H](NC(=O)c2cnn3ccc(NCc4cccc(F)c4)nc23)CC1", 100],
  ["O=C(NC1CCOCC1)c1cnc2ccc(NCc3cccc(F)c3)nn12", 99.7],
  ["CC(Nc1ccn2ncc(C(=O)NC3CCN(C)CC3)c2n1)c1cccc(F)c1 (centres undefined)", 97.8],
  ["CN(Cc1cccc(F)c1)c1ccn2ncc(C(=O)NC3CCOCC3)c2n1", 101]
]}

---

Measured inhibition values are reported for all entries that follow.
# test.summary: Inhibition of Trk-A […] mutant (unknown origin) at 500 nM incubated for 30 mins by caliper mobility shift assay relative to control
# details: Homo sapiens
recorded.metric: inhibition (%)

{"columns": ["compound", "recorded.metric", "reported"],
 "data": [
  ["CC(Nc1ccn2ncc(C(=O)NC3CCOCC3)c2n1)c1cccc(F)c1 (centres undefined)", "inhibition", 93.6],
  ["O=C(N[C@H]1CC[C@H](O)CC1)c1cnc2ccc(NCc3cccc(F)c3)nn12", "inhibition", 97.8],
  ["O=C(NC1CCOCC1)c1cnc2ccc(NCc3cccc(F)c3)nn12", "inhibition", 87.1],
  ["CO[C@H]1CC[C@H](NC(=O)c2cnn3ccc(NCc4cccc(F)c4)nc23)CC1", "inhibition", 103],
  ["O=C(NC1CCOCC1)c1cnn2ccc(NCc3cccc(F)c3)nc12", "inhibition", 94.6],
  ["CN(Cc1cccc(F)c1)c1ccn2ncc(C(=O)NC3CCOCC3)c2n1", "inhibition", 99.5],
  ["CN1CCC(NC(=O)c2cnc3ccc(NCc4cccc(F)c4)nn23)CC1", "inhibition", -2.1],
  ["CC(Nc1ccn2ncc(C(=O)NC3CCN(C)CC3)c2n1)c1cccc(F)c1 (centres undefined)", "inhibition", 16.4],
  ["CO[C@H]1CC[C@H](NC(=O)c2cnc3ccc(NCc4cccc(F)c4)nn23)CC1", "inhibition", 94.6],
  ["CN1CCC(NC(=O)c2cnn3ccc(NCc4cccc(F)c4)nc23)CC1", "inhibition", 12.7],
  ["CN(Cc1cccc(F)c1)c1ccn2ncc(C(=O)N[C@H]3CC[C@H](O)CC3)c2n1", "inhibition", 101],
  ["CO[C@H]1CC[C@H](NC(=O)c2cnn3ccc(N(C)Cc4cccc(F)c4)nc23)CC1", "inhibition", 103],
  ["O=C(N[C@H]1CC[C@H](O)CC1)c1cnn2ccc(NCc3cccc(F)c3)nc12", "inhibition", 96.8],
  ["CC(Nc1ccn2ncc(C(=O)N[C@H]3CC[C@H](O)CC3)c2n1)c1cccc(F)c1 (some centres undefined)", "inhibition", 93.3]
]}
